Tested on: RBM10 RRM1-ZnF (GST-tagged construct);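 further: 20 pmol protein with 1.5 nmol RNA pool for 30 min at 4°C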
Test: RNAcompete 7-mer binding Z-score; higher = stronger binding preference
Whole data set: some 16,000 sequences, median “Z-score” near -0.37, cut for the highest 2% near 3.2. For the sample, the highest values were picked, then their nearest neighbours and some sequences at random.
Respond with Criterion met for RNAcompete 7-mer binding Z-score values of 2 and above, Criterion not met for values below.

Some solved entries appear below for comparison.
GUAGAUG    Criterion not met
GGGGAUU    Criterion met
GGGAGAU    Criterion met

Does the reported RNAcompete 7-mer binding Z-score for GGGGAUG fall at or above the 2 mark?
Criterion met

Does the reported RNAcompete 7-mer binding Z-score for GUGGGUG fall at or above the 2 mark?
Criterion met

Does the reported RNAcompete 7-mer binding Z-score for CCAGUCC fall at or above the 2 mark?
Criterion not met

Does the reported RNAcompete 7-mer binding Z-score for UUGGUCA fall at or above the 2 mark?
Criterion not met

====

Tested on: RBM10 RRM1-ZnF (GST-tagged construct);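 further: 20 pmol protein with 1.5 nmol RNA pool for 30 min at 4°C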
Assay: RNAcompete 7-mer binding Z-score; higher = stronger binding preference
In all, about 16,000 sequences were measured (“Z-score”: median about -0.37, highest 2% from about 3.2 on). The full list was thinned out, with the highest values kept by preference.
Kindly state RNAcompete 7-mer binding Z-score for each of the entries shown.
Give bare numbers.

Reference set, count: 10
CGAGGGA    2.84
GGGAACG    3.67
GUUACGG    0.859
CGAGGGC    1.06
UGAGGGC    2.27
AGAGGGU    2.22
AACGGCA    0.42
CAUAAGA    -0.513
GAGGGUG    3.75
UGCGAUA    -0.223

Each sequence below has a reported value. Please supply its RNAcompete 7-mer binding Z-score.
1. UAGGGUA
2. UUGAACG
3. GUCCAUU
4. AAGGGUC
5. GAGGGUC
6. GAGGGUU
7. UAUGGCG
8. UAGGGUG

1: 3.47; 2: -0.139; 3: -0.818; 4: 1.72; 5: 1.44; 6: 3.03; 7: 0.537; 8: 4.81

Each sequence below has a reported value. Please supply its RNAcompete 7-mer binding Z-score.
1. GACCCCU
2. UAUGGGG
3. AGUAGGG
4. UGAGGCU
5. CGAGGUU

-0.704
3.4
4.16
0.3
0.846

====

Test system: RBM10 RRM1-ZnF (GST-tagged construct);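 further: 20 pmol protein with 1.5 nmol RNA pool for 30 min at 4°C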
Experiment: RNAcompete 7-mer binding Z-score; higher = stronger binding preference
In all, about 16,000 sequences were measured (“Z-score”: median about -0.37, highest 2% from about 3.2 on). The entries come from a sample that favours the highest values as a whole.
testReadout: RNAcompete 7-mer binding Z-score
Give bare numbers.

CGGCUUG    -0.324
CGUGGAA    1.19
UAUGGAA    1.22

Each sequence below has a reported value. Please supply its RNAcompete 7-mer binding Z-score.
1. AUGACGG
2. AAUUGCC
3. UAUACGU

1.39
-0.626
-0.357

====

Tested on: RBM10 RRM1-ZnF (GST-tagged construct);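 further: 20 pmol protein with 1.5 nmol RNA pool for 30 min at 4°C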
Assay: RNAcompete 7-mer binding Z-score; higher = stronger binding preference
Over roughly 16,000 sequences, “Z-score” has its median near -0.37; the highest 2% begin near 3.2. What follows is part of a selection rich in the highest values, with near analogues and random picks from the rest.
testReadout: RNAcompete 7-mer binding Z-score
Numbers only.

Each sequence below has a reported value. Please supply its RNAcompete 7-mer binding Z-score.
1. AGGGUCG
2. UUCGUUG

1.41
-0.162

====

Kindly state RNAcompete 7-mer binding Z-score for each of the entries shown.
System: RBM10 RRM1-ZnF (GST-tagged construct);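 further: 20 pmol protein with 1.5 nmol RNA pool for 30 min at 4°C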
Experiment: RNAcompete 7-mer binding Z-score; higher = stronger binding preference
In all, about 16,000 sequences were measured (“Z-score”: median about -0.37, highest 2% from about 3.2 on). What follows is part of a selection rich in the highest values, with near analogues and random picks from the rest.
Numbers only.

Reference set, count: 5
UAGGAAA    1.47
AAGGAAU    2.28
GGCGGGG    3.96
CCUUGUA    -0.733
AGGGAGG    3.68

Each sequence below has a reported value. Please supply its RNAcompete 7-mer binding Z-score.
1. GGCCUGC
2. GAGCUGA
3. GAGGGCU
4. CGCGUGC
5. GGGUAGA
6. AAACCAC

[-0.428, 0.417, 1.3, -0.223, 3.74, -0.519]

====

System: RBM10 RRM1-ZnF (GST-tagged construct);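 further: 20 pmol protein with 1.5 nmol RNA pool for 30 min at 4°C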
Test: RNAcompete 7-mer binding Z-score; higher = stronger binding preference
The full ranking holds about 16,000 sequences; the median of “Z-score” is about -0.37, and the highest 2% start at about 3.2. This is one part of a sample in which the highest values are shown more often than they occur.
Respond with TRUE for RNAcompete 7-mer binding Z-score values of 2 and above, FALSE for values below.

Some solved entries appear below for comparison.
AAAGGUU    TRUE
UGUGGUG    FALSE
GGGGGUG    TRUE
UCGGGUG    TRUE
CCCCAAA    FALSE

Does the reported RNAcompete 7-mer binding Z-score for GGUGGGU fall at or above the 2 mark?
TRUE

Does the reported RNAcompete 7-mer binding Z-score for UCCAUUA fall at or above the 2 mark?
FALSE

Does the reported RNAcompete 7-mer binding Z-score for GGUGGGC fall at or above the 2 mark?
TRUE

====

Tested on: RBM10 RRM1-ZnF (GST-tagged construct);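 further: 20 pmol protein with 1.5 nmol RNA pool for 30 min at 4°C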
Assay: RNAcompete 7-mer binding Z-score; higher = stronger binding preference
Whole data set: some 16,000 sequences, median “Z-score” near -0.37, cut for the highest 2% near 3.2. This excerpt belongs to a sample that is enriched for the highest values.
Class assignment keyed on RNAcompete 7-mer binding Z-score, ranges low (below -0.03), medium (-0.03 to below 2), high (2 or more)

Some solved entries appear below for comparison.
CCCCGAC    low
AGCCUUU    low
AGGGAAC    high
UGGUGAG    high

Into which bin does this sequence go? AUGGGGC
high

Into which bin does this sequence go? AGGAUGG
high

Into which bin does this sequence go? CAAGUAA
low

Into which bin does this sequence go? GGGCUAU
medium

Into which bin does this sequence go? GGGGGUA
high

====

Tested on: RBM10 RRM1-ZnF (GST-tagged construct);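 further: 20 pmol protein with 1.5 nmol RNA pool for 30 min at 4°C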
Experiment: RNAcompete 7-mer binding Z-score; higher = stronger binding preference
Over roughly 16,000 sequences, “Z-score” has its median near -0.37; the highest 2% begin near 3.2. This excerpt belongs to a sample that is enriched for the highest values.
Kindly state RNAcompete 7-mer binding Z-score for each of the entries shown.
Numbers only.

GGGCAGA    2.45
AAUUGGG    2.54
GGUUUUG    2.03
AGGCAGG    1.8
UGGGGGG    4.02

Each sequence below has a reported value. Please supply its RNAcompete 7-mer binding Z-score.
1. CAUAGGA
2. GAUUGGG

0.54
3.62

Each sequence below has a reported value. Please supply its RNAcompete 7-mer binding Z-score.
1. GGACAGU
2. UGGCGGU
3. UGGGGCG
4. GGGCGAA
5. GGGCGAC
6. GCCAGUA
7. UGGCGGG
8. GGGCGAG

1. 0.842
2. 1.49
3. 2.54
4. 2.22
5. 1.81
6. -0.288
7. 3.47
8. 3.37

Each sequence below has a reported value. Please supply its RNAcompete 7-mer binding Z-score.
1. GUUUGGG
2. GGUUGUG
3. CGUUUGG
4. GAUUGGC
5. UUCUUUG
6. UCCCUGG
7. GGUUUGG

[3.59, 2.29, 0.296, 0.953, -0.659, -0.24, 3.62]

====

Kindly state RNAcompete 7-mer binding Z-score for each of the entries shown.
Test system: RBM10 RRM1-ZnF (GST-tagged construct);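 further: 20 pmol protein with 1.5 nmol RNA pool for 30 min at 4°C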
Assay: RNAcompete 7-mer binding Z-score; higher = stronger binding preference
In all, about 16,000 sequences were measured (“Z-score”: median about -0.37, highest 2% from about 3.2 on). The full list was thinned out, with the highest values kept by preference.
Give bare numbers.

Reference set, count: 3
CCGUUCC    -0.967
UGUUUCU    -0.418
AAUUUCG    -0.607

Each sequence below has a reported value. Please supply its RNAcompete 7-mer binding Z-score.
1. CGGAUGU
2. CCCUGUG
3. UCGGGGC
4. CCCACUG

1. 1.04
2. -0.327
3. 1.65
4. -0.483

====

Test system: RBM10 RRM1-ZnF (GST-tagged construct);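 further: 20 pmol protein with 1.5 nmol RNA pool for 30 min at 4°C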
Experiment: RNAcompete 7-mer binding Z-score; higher = stronger binding preference
Over roughly 16,000 sequences, “Z-score” has its median near -0.37; the highest 2% begin near 3.2. Shown is part of a subset that was picked to be rich in the highest values.
Kindly state RNAcompete 7-mer binding Z-score for each of the entries shown.
Numbers only.

Reference set, count: 3
CAUAGGG    1.51
UUUAGGG    1.65
GAGGAUG    3.1

Each sequence below has a reported value. Please supply its RNAcompete 7-mer binding Z-score.
1. GGGAGUG
2. GAUGGUG
3. GCGGGGA
4. AAUGGUG
5. AUGGGGA
6. GUUUUAC

3.73
3.27
3.67
2.79
4.27
-0.591

Each sequence below has a reported value. Please supply its RNAcompete 7-mer binding Z-score.
1. UGUUGUC
2. AGGAGGA
3. AUGGGGU

1. -0.574
2. 2.25
3. 3.92

Each sequence below has a reported value. Please supply its RNAcompete 7-mer binding Z-score.
1. GUUAUUC
2. GGGAGUA
3. AUCUAAC
4. AUGGAUG
5. CUGGGAG

1. -0.513
2. 2.53
3. -0.681
4. 3.28
5. 1.66

Each sequence below has a reported value. Please supply its RNAcompete 7-mer binding Z-score.
1. GAUGGUC
2. UGGAGGA
3. AAUAGGC
4. AAAUUCA

0.563
2.87
0.192
-0.668
